tested on: T98 cells; assay: IC50 TMZ sensitivity (50% growth inhibition, cell counts); assay type: cell-based, human; conditions: Homo sapiens, T98, 72 h, TMZ alone

COMPOUND | MEASURE_UNIT | IC50
Cn1nnc2c(C(N)=O)ncn2c1=O [TMZ, Temozolomide, reference compound] | µM | 438

----------
system: LN18 cells; test: IC50 TMZ sensitivity (50% growth inhibition, cell counts); type: cell-based; conditions: Homo sapiens, LN-18, TMZ alone, 72 hrs

MOLECULE | IC50 (µM)
Cn1nnc2c(C(N)=O)ncn2c1=O [TMZ, Temozolomide, reference compound] | 774
